FYI, the data here is from the supplement of paper PMC11061612.

Test system: A375 (Melanoma);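 also: after 72 h of two-drug dosing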
Assay: Bliss excess, mean over the matrix (fraction); higher = more synergy
measure: Bliss excess
The answer should be a number; do not append a unit.

Consider the molecule shown here: CN(CCO)CC[C@H](CSc1ccccc1)Nc1ccc(S(=O)(=O)NC(=O)c2ccc(N3CCC([C@@H](O)c4ccccc4-c4ccc(Cl)cc4)CC3)cc2)cc1S(=O)(=O)C(F)(F)F [AZD4320] + C[C@@H]1COCCN1C2=NC(=NC(=C2)C3(CC3)[S@](=N)(=O)C)C4=C5C=CNC5=NC=C4 [AZD6738] (first compound max 1 µM, 7x7, partner max 10 µM) What is its recorded Bliss excess?
-0.0221

Quick one: CN(C)CCCOc1ccc(-c2ccc3ncc4c(c3c2)n(C2CCOCC2)c(=O)n4C)cn1 [AZD0156] + C=CCn1c(=O)c2cnc(Nc3ccc(N4CCN(C)CC4)cc3)nc2n1-c1cccc(C(C)(C)O)n1 [AZD1775] (first compound max 1 µM, partner max 1 µM)
-0.0275

Quick one: CN(CCO)CC[C@H](CSc1ccccc1)Nc1ccc(S(=O)(=O)NC(=O)c2ccc(N3CCC([C@@H](O)c4ccccc4-c4ccc(Cl)cc4)CC3)cc2)cc1S(=O)(=O)C(F)(F)F [AZD4320] + Cc1cc2ncnn2cc1Nc1ncc2c(n1)n(C1CCOCC1)c(=O)n2C [AZD7648] (first compound max 1 µM, 7x7, partner max 10 µM)
-0.0312

* * *

Please provide measured combination Emax for the entries that follow.
Test system: OCI-M1 (Acute Myeloid Leukemia)
Assay: combination Emax (second highest fraction inhibited in the dose matrix, 72 h); higher = more inhibition; extreme values may be limits of the assay
The answer should be a number; do not append a unit.

Consider the compound shown here: CC1(C)CCC(CN2CCN(c3ccc(C(=O)NS(=O)(=O)c4ccc(NCC5CCOCC5)c([N+](=O)[O-])c4)c(Oc4cnc5[nH]ccc5c4)c3)CC2)=C(c2ccc(Cl)cc2)C1 [Venetoclax] + CCN(CCO)CCCOc1ccc2c(Nc3cc(CC(=O)Nc4cccc(F)c4)[nH]n3)ncnc2c1 [AZD2811] (first compound max 1 µM, 7x7, partner max 1 µM) What is its recorded combination Emax?
0.276

Quick one: C=CCn1c(=O)c2cnc(Nc3ccc(N4CCN(C)CC4)cc3)nc2n1-c1cccc(C(C)(C)O)n1 [AZD1775] + C1CN(CCC1(C(=O)N[C@@H](CCO)C2=CC=C(C=C2)Cl)N)C3=NC=NC4=C3C=CN4 [Capivasertib] (first compound max 3 µM, partner max 3 µM)
0.974

Quick one: Cc1c2c(nn1C)CSCc1cc(n(C)n1)CSc1cc(c3ccccc3c1)OCCCc1c(C(=O)O)n(C)c3c-2c(Cl)ccc13 [AZD5991] + Cc1cc2ncnn2cc1Nc1ncc2c(n1)n(C1CCOCC1)c(=O)n2C [AZD7648] (first compound max 1 µM, 7x7, partner max 10 µM)
0.145

Quick one: CN(C)CCCOc1ccc(-c2ccc3ncc4c(c3c2)n(C2CCOCC2)c(=O)n4C)cn1 [AZD0156] + C=CCn1c(=O)c2cnc(Nc3ccc(N4CCN(C)CC4)cc3)nc2n1-c1cccc(C(C)(C)O)n1 [AZD1775] (first compound max 1 µM, partner max 1 µM)
0.869

Quick one: COc1nnc2ccc(N3CCC(c4ccc(OCCN5CCN(C)C(=O)[C@H]5C)cc4)CC3)nn12 [AZD5153] + Cc1c2c(nn1C)CSCc1cc(n(C)n1)CSc1cc(c3ccccc3c1)OCCCc1c(C(=O)O)n(C)c3c-2c(Cl)ccc13 [AZD5991] (first compound max 1 µM, 7x7, partner max 1 µM)
1

Quick one: COc1nnc2ccc(N3CCC(c4ccc(OCCN5CCN(C)C(=O)[C@H]5C)cc4)CC3)nn12 [AZD5153] + C[C@@H]1COCCN1C2=NC(=NC(=C2)C3(CC3)[S@](=N)(=O)C)C4=C5C=CNC5=NC=C4 [AZD6738] (first compound max 1 µM, 7x7, partner max 10 µM)
1

Quick one: CC1(C)CCC(CN2CCN(c3ccc(C(=O)NS(=O)(=O)c4ccc(NCC5CCOCC5)c([N+](=O)[O-])c4)c(Oc4cnc5[nH]ccc5c4)c3)CC2)=C(c2ccc(Cl)cc2)C1 [Venetoclax] + Cc1cc2ncnn2cc1Nc1ncc2c(n1)n(C1CCOCC1)c(=O)n2C [AZD7648] (first compound max 1 µM, 7x7, partner max 10 µM)
0.234

Quick one: CS(=O)(=O)CCNCc1ccc(-c2ccc3ncnc(Nc4ccc(OCc5cccc(F)c5)c(Cl)c4)c3c2)o1 [Lapatinib] + NC1(c2ccc(-c3nc4ccn5c(=O)[nH]nc5c4cc3-c3ccccc3)cc2)CCC1 [MK-2206] (first compound max 10 µM, 7x7, partner max 10 µM)
0.844

Quick one: Cc1c2c(nn1C)CSCc1cc(n(C)n1)CSc1cc(c3ccccc3c1)OCCCc1c(C(=O)O)n(C)c3c-2c(Cl)ccc13 [AZD5991] + CCN(CCO)CCCOc1ccc2c(Nc3cc(CC(=O)Nc4cccc(F)c4)[nH]n3)ncnc2c1 [AZD2811] (first compound max 1 µM, 7x7, partner max 1 µM)
0.285

Quick one: CC(=O)c1c(C)c2cnc(Nc3ccc(N4CCNCC4)cn3)nc2n(C2CCCC2)c1=O [Palbociclib] + CC1(C)CCC(CN2CCN(c3ccc(C(=O)NS(=O)(=O)c4ccc(NCC5CCOCC5)c([N+](=O)[O-])c4)c(Oc4cnc5[nH]ccc5c4)c3)CC2)=C(c2ccc(Cl)cc2)C1 [Venetoclax] (first compound max 10 µM, 7x7, partner max 1 µM)
0.499

Quick one: COc1cccc(OCCCN)c1-c1cc(Nc2cnc(C#N)cn2)n[nH]1 [Prexasertib] + CCc1c2c(nc3ccc(O)cc13)-c1cc3c(c(=O)n1C2)COC(=O)[C@]3(O)CC [SN-38] (first compound max 1 µM, 7x7, partner max 0.3 µM)
1

Quick one: CC(=O)c1c(C)c2cnc(Nc3ccc(N4CCNCC4)cn3)nc2n(C2CCCC2)c1=O [Palbociclib] + CN(CC[C@H](CSC1=CC=CC=C1)NC2=C(C=C(C=C2)S(=O)(=O)NC(=O)C3=CC=C(C=C3)N4CCC(CC4)[C@H](C5=CC=CC=C5C6=CC=C(C=C6)Cl)O)S(=O)(=O)C(F)(F)F)CCO [AZD4320] (first compound max 10 µM, 7x7, partner max 1 µM)
0.994

Quick one: Cn1cnc2c(F)c(Nc3ccc(Br)cc3Cl)c(C(=O)NOCCO)cc21 [Selumetinib] + CCN(CCO)CCCOc1ccc2c(Nc3cc(CC(=O)Nc4cccc(F)c4)[nH]n3)ncnc2c1 [AZD2811] (first compound max 10 µM, 7x7, partner max 1 µM)
0.841
